- System: ex vivo stimulated LTB4 production
- assay.comment: Murine arachidonic acid-induced inflammation model: ex vivo stimulated LTB4 production (% Inh. LTB4)
- condition.context: Mus musculus; female Balb/c mice, 30 mg/kg oral gavage; blood taken 3 h after arachidonic acid, ex vivo A23187 stimulation; number of determinations in parentheses
Reported inhibition at 30 mg/kg maps to class as: range 1: < 70%; range 2: ≥ 70% and < 80%; range 3: ≥ 80%

> print(dat)
                                    compound    group
 1  c1cnc2nc(Oc3ccc(CN4CCC(N5CCOCC5)CC4)cc3)sc2c1 [Example 257]  range 3
 2  CC(=O)N1C[C@H]2C[C@@H]1CN2Cc1ccc(Oc2nc3ncccc3s2)cc1 [Example 265]  range 3
 3  CC(=O)N1C[C@@H]2C[C@H]1CN2Cc1ccc(Oc2nc3nccnc3s2)cc1 [Example 120]  range 1
 4  NC(=O)N1C[C@@H]2C[C@H]1CN2Cc1ccc(Oc2nc3ncccc3s2)cc1 [Example 106]  range 3
 5  NC(=O)C1CCN(Cc2ccc(Oc3nc4ncccc4s3)cc2)CC1 [Example 100]  range 3
 6  c1cnc2nc(Oc3ccc(CCN4CCCC4)cc3)sc2c1 [Example 61]  range 1
 7  CC(=O)N[C@H]1C[C@H]2CC[C@@H](C1)N2CCc1ccc(Oc2nc3ncccc3s2)cc1 [Example 76]  range 3
 8  O=C1C[C@@H](O)CN1C1CCN(CCOc2ccc(Oc3nc4ncccc4s3)cc2)CC1 [Example 270]  range 2
 9  Cc1ccnc2nc(Oc3ccc(CN4CCC(C(N)=O)CC4)cc3)sc12 [Example 282]  range 1
10  CC(=O)N1CC2CN(Cc3ccc(Oc4nc5ncccc5s4)cc3)CC2C1 (stereo not shown) [Example 276]  range 1
11  NC(=O)C1CCN(CCc2ccc(Oc3nc4ncccc4s3)cc2)CC1 [Example 66]  range 2
12  NC(=O)N1C[C@@H]2C[C@H]1CN2CCc1ccc(Oc2nc3ncccc3s2)cc1 [Example 45]  range 3
13  CC(=O)N[C@@H]1C[C@H]2CC[C@@H](C1)N2Cc1ccc(Oc2nc3ncccc3s2)cc1 [Example 109]  range 3

====

- system.tested: recombinant human LTA4 hydrolase (rhLTA4H) (Homo sapiens)
- Construct: made in house; host or cells: Spodoptera frugiperda (Sf-9) cells, recombinant baculovirus (pFastBac1)
- Sequence (P09960 1-611): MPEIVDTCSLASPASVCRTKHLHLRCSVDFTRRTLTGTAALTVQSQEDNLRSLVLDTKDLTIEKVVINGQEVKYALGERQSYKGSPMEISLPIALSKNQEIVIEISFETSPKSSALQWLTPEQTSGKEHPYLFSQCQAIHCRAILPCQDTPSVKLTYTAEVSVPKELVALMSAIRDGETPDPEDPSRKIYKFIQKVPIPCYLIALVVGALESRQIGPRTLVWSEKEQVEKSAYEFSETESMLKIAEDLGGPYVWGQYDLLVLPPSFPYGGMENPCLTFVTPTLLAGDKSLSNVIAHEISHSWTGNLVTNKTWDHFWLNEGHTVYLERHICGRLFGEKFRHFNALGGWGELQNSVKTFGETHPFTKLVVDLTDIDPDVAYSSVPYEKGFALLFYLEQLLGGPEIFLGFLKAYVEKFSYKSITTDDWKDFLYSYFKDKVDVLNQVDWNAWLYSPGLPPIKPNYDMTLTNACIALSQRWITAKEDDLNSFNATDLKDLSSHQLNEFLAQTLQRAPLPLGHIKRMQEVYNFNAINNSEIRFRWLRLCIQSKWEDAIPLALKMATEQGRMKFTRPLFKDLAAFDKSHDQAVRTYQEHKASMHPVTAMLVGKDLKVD
- assay.comment: Recombinant human LTA4 hydrolase assay for LTA4 hydrolase inhibitor activity
- Format: biochemical
- condition.context: rhLTA4H, LTA4 substrate, LTB4 by immunoassay; single determination or average; read-out: IC50
pIC50: −log10 of the molar value. Counter-ions that a name gives are not always drawn.
Rule: pIC50 under 8 gives condition not met, otherwise condition met.

> print(dat)
                                    compound              group
 1     c1cnc2nc(Oc3ccc(OCCN4CCCCC4)cc3)sc2c1      condition met
 2  CC(=O)N1C[C@@H]2C[C@H]1CN2Cc1ccc(Oc2nc3cc(F)cnc3s2)cc1  condition not met
 3       CCCN(CCC)CCc1ccc(Oc2nc3cnccc3s2)cc1  condition not met
 4  c1cnc2sc(Oc3ccc(OCCN4CCC(c5ccncc5)CC4)cc3)nc2c1  condition not met
 5  CC(=O)N1[C@@H]2CC[C@H]1CN(CCc1ccc(Oc3nc4ncccc4s3)cc1)C2  condition not met
 6  CC(=O)N1C[C@@H]2C[C@H]1CN2Cc1ccc(Oc2nc3c(C)ccnc3s2)cc1  condition not met
 7  Cc1ccnc2nc(Oc3ccc(OCCN4[C@@H]5CC[C@H]4C[C@@H](NC(=O)CN)C5)cc3)sc12 [Example 166, hydrochloride]  condition not met
 8  CC(=O)N[C@@H]1C[C@H]2CC[C@@H](C1)N2CCOc1ccc(Oc2nc3cccnc3s2)cc1  condition not met
 9   O=C1CCN(CCc2ccc(Oc3nc4nccnc4s3)cc2)CCN1  condition not met
10  CC(=O)N[C@@H]1C[C@H]2CC[C@@H](C1)N2CCOc1ccc(Oc2nc3ncccc3s2)cc1      condition met
11  c1ccc(SC2CCN(Cc3ccc(Oc4nc5ncccc5s4)cc3)CC2)nc1      condition met
12  CC(=O)N[C@H]1C[C@H]2CC[C@@H](C1)N2Cc1ccc(Oc2nc3cnccc3s2)cc1  condition not met
13  CS(=O)(=O)N[C@@H]1CC2CC[C@@H](C1)N2CCc1ccc(Oc2nc3cccnc3s2)cc1  condition not met
14  OC1(c2ccccc2)CCN(CCOc2ccc(Oc3nc4cccnc4s3)cc2)CC1  condition not met
